- system-name: Protein kinase C beta type (Homo sapiens, UniProt P05771)
- Sequence (P05771 whole entry): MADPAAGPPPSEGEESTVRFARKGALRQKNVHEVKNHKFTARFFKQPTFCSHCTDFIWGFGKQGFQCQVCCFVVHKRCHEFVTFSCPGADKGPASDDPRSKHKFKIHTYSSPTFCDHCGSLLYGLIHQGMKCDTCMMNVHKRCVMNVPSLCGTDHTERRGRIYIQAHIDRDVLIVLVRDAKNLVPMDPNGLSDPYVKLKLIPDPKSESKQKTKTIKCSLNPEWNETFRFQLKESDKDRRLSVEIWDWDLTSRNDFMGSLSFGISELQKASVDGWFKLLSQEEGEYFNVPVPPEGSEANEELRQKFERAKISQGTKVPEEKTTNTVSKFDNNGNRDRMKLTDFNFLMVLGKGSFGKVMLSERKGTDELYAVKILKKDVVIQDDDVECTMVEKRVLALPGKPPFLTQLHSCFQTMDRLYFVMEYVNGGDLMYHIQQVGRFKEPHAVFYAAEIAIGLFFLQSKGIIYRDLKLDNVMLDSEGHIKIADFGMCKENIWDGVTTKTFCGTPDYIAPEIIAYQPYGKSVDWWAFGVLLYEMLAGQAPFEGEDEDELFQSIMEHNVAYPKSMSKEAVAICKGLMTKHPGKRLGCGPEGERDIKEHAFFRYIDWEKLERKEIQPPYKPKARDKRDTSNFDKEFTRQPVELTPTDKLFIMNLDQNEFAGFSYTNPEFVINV
- test-details: Inhibition of PKCbeta1 assessed as FLC-SIYRRGSRRWRKL peptide phosphorylation by fluorescence polarization assay

{"columns": ["structure-notation", "IC50"],
 "data": [
  ["CC1(C)c2cc(C3CCN(C4COC4)CC3)ccc2C(=O)c2c1[nH]c1cc(C#N)ccc21", "> 50 µM"]
]}

====

- test-details: Clearance in mouse liver microsomes at 1 uM after 30 mins in presence of NADPH
- Assay type: ADME, Microsome
Collected microsomal CLint at 1 µM values appear next to each entry.

{"columns": ["structure-notation", "microsomal CLint at 1 µM, µL/min/mg"],
 "data": [
  ["CC1(C)c2cc(N3CCN(C4COC4)CC3)ccc2C(=O)c2c1[nH]c1cc(C#N)ccc21", 15.1],
  ["CC1(C)c2cc(N3CCCCC3)ccc2C(=O)c2c1[nH]c1cc(C#N)ccc21", 58.9],
  ["CC1(C)c2cc(OCCN3CCS(=O)(=O)CC3)ccc2C(=O)c2c1[nH]c1cc(C#N)ccc21", 24.9],
  ["CC1(C)c2cc(C3CCN(C4COC4)CC3)ccc2C(=O)c2c1[nH]c1cc(C#N)ccc21", 10.4],
  ["CC(=O)NCCOc1ccc2c(c1)C(C)(C)c1[nH]c3cc(C#N)ccc3c1C2=O", 14.1]
]}
